Catalogue of Kd readings, one per entry.
System tested: T1, EsCas13d, nuclease-dead (Eubacterium siraeum, UniProt B0MS50, R295A;H300A;R849A;H854A)
T1 sequence: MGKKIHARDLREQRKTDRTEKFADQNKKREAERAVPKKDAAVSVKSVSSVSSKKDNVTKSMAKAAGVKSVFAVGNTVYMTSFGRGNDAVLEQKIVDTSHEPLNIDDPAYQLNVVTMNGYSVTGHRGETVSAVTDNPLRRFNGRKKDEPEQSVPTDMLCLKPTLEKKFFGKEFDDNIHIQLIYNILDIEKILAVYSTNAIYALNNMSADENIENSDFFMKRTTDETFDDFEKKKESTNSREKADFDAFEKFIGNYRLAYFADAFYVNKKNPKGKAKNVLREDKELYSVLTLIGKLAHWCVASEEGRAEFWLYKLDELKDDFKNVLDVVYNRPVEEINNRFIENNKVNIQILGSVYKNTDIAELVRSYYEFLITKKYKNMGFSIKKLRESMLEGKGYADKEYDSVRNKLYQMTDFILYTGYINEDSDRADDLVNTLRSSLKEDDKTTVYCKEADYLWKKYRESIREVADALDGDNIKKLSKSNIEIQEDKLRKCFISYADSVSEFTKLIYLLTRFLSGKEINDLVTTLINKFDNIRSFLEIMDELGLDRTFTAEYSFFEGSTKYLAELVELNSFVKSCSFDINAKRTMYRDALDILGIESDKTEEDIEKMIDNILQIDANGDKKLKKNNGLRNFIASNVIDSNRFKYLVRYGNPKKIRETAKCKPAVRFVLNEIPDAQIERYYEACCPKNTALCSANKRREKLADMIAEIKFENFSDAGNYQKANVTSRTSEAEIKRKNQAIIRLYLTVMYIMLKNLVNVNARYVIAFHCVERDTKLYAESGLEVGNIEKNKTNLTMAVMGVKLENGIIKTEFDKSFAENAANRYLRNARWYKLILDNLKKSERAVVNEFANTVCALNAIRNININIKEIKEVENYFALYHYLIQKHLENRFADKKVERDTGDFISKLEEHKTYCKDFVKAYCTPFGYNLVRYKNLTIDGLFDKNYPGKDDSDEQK
Experimental protocol: crRNA (strand 1, pre-loaded); Mg2+; 40 mM Tris-HCl pH 7.5, 150 mM NaCl, 6 mM MgCl2, 1 mM DTT, 0.1% Tween-20, 0.2 mg/ml BSA; 25 C; 10 min per concentration, then washed
Test settings: tags: His6-TwinStrep-SUMO cleaved; N-terminal SNAP kept (SNAP-Surface 488); label: 3' end held by stalled T7 RNA polymerase

Binder: target 1 del19,del20 (mixed) RNA 1: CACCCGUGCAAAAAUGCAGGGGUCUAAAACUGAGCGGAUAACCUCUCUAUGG RNA 2: GGGAAUGGAUCCACAUCUACGAAUUCGUACCAGAGAGGUUAUCCGCUCACCGAGAUCGGAAGAGCACACGU
Kd (nM): 32.4

Binder: target 2 MT 5'PFS GAA 3'PFS CUA (mixed) RNA 1: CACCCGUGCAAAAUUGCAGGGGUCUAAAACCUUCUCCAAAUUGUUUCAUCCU RNA 2: GGGAAUGGAUCCACAUCUACGAAUUCGAAAGGAUGAAACAAUUUGGAGAAGCUAAGAUCGGAAGAGCACACGU
Kd (nM): 6.9

Binder: target 3 insU 3' of 22,insA 3' of 7 (mixed) RNA 1: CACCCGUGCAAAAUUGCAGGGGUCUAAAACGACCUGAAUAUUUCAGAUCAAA RNA 2: GGGAAUGGAUCCACAUCUACGAAUUCGUUUUUUGAUCUGAAAUAUUACAGGUCUGCAGAUCGGAAGAGCACACGU
Kd (nM): 68.5

Binder: target 3 insU 3' of 11,insC 3' of 4 (mixed) RNA 1: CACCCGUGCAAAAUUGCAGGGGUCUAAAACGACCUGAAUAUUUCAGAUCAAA RNA 2: GGGAAUGGAUCCACAUCUACGAAUUCGUUUUUGAUCUGAAAUUAUUCAGCGUCUGCAGAUCGGAAGAGCACACGU
Kd (nM): 90

Binder: target 1 MT 5'PFS GGA 3'PFS CAC (mixed) RNA 1: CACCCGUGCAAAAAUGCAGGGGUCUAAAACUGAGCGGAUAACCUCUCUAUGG RNA 2: GGGAAUGGAUCCACAUCUACGAAUUCGGACCAUAGAGAGGUUAUCCGCUCACACAGAUCGGAAGAGCACACGU
Kd (nM): 35.5

Binder: target 1 MT 5'PFS AAU 3'PFS AUC (mixed) RNA 1: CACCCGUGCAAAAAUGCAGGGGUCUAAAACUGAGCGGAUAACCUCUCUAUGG RNA 2: GGGAAUGGAUCCACAUCUACGAAUUCAAUCCAUAGAGAGGUUAUCCGCUCAAUCAGAUCGGAAGAGCACACGU
Kd (nM): 28.5

Binder: target 2 MT 5'PFS AUU 3'PFS CUU (mixed) RNA 1: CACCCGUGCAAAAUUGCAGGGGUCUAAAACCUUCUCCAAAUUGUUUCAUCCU RNA 2: GGGAAUGGAUCCACAUCUACGAAUUCAUUAGGAUGAAACAAUUUGGAGAAGCUUAGAUCGGAAGAGCACACGU
Kd (nM): 10

Binder: target 2 MT 5'PFS GAC 3'PFS UUC (mixed) RNA 1: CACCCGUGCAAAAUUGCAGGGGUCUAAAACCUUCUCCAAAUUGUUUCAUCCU RNA 2: GGGAAUGGAUCCACAUCUACGAAUUCGACAGGAUGAAACAAUUUGGAGAAGUUCAGAUCGGAAGAGCACACGU
Kd (nM): 33

Binder: target 1 MT 5'PFS UCG 3'PFS ACU (mixed) RNA 1: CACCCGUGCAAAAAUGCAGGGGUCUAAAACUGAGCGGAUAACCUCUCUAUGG RNA 2: GGGAAUGGAUCCACAUCUACGAAUUCUCGCCAUAGAGAGGUUAUCCGCUCAACUAGAUCGGAAGAGCACACGU
Kd (nM): 28

Binder: target 1 MT 5'PFS CCU 3'PFS AAC (mixed) RNA 1: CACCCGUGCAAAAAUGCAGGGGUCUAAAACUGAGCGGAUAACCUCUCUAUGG RNA 2: GGGAAUGGAUCCACAUCUACGAAUUCCCUCCAUAGAGAGGUUAUCCGCUCAAACAGAUCGGAAGAGCACACGU
Kd (nM): 18

Binder: target 2 MT 5'PFS AAU 3'PFS AAG (mixed) RNA 1: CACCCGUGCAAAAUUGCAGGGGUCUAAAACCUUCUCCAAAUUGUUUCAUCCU RNA 2: GGGAAUGGAUCCACAUCUACGAAUUCAAUAGGAUGAAACAAUUUGGAGAAGAAGAGAUCGGAAGAGCACACGU
Kd (nM): 5.5

Binder: target 2 MT 5'PFS AUG 3'PFS CUU (mixed) RNA 1: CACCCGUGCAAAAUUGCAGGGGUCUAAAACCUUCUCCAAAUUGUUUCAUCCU RNA 2: GGGAAUGGAUCCACAUCUACGAAUUCAUGAGGAUGAAACAAUUUGGAGAAGCUUAGAUCGGAAGAGCACACGU
Kd (nM): 15.4

Binder: target 1 A9G,A18U (mixed) RNA 1: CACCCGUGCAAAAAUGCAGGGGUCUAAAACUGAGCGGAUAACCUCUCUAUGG RNA 2: GGGAAUGGAUCCACAUCUACGAAUUCGUACCAUUGAGAGGUUGUCCGCUCACCGAGAUCGGAAGAGCACACGU
Kd (nM): 39.7

Binder: target 2 MT 5'PFS ACU 3'PFS UCG (mixed) RNA 1: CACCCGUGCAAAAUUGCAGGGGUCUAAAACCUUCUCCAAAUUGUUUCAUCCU RNA 2: GGGAAUGGAUCCACAUCUACGAAUUCACUAGGAUGAAACAAUUUGGAGAAGUCGAGAUCGGAAGAGCACACGU
Kd (nM): 6.7
